// data source = patent US20190092852A1

t1/2 values by entry
- Tested Target: T1, cyno IL-33 N-His (cynomolgus monkey)
- T1 chain: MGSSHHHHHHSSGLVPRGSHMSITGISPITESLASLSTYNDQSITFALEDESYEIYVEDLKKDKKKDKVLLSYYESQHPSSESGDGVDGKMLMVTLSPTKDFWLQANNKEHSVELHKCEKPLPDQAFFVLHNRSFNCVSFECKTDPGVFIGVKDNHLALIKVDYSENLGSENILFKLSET
- Assay: SPR Biacore T200, 37 C
- Experimental: The binding kinetics of the anti-IL-33 antibody 10C12.38.H6.87Y.58I IgG4 and each anti-IL-33 antibody listed in Table 5 (RG1-RG20) to IL-33 were measured using surface plasmon resonance (SPR) on a BIACORE® T200 instrument (GE Healthcare). […] Antibody binding was measured to human IL-33 (R&D systems, #3625-IL-010/CF) and cyno IL-33 N-His (SEQ ID NO: 317) (Genentech, Inc.). […] After injection, disassociation of the ligand from the antibody was monitored for 10 min in running buffer. […]
Measurement Kind: t1/2 (min)

INSERT INTO measurements (binder, units_label, reported_measurement) VALUES
  ('H1M9566N (antibody, IgG1, V domains shown, also called RG2) VH: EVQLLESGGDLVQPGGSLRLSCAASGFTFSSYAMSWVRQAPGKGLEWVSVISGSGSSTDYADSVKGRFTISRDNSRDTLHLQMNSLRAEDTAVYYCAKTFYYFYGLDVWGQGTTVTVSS VL: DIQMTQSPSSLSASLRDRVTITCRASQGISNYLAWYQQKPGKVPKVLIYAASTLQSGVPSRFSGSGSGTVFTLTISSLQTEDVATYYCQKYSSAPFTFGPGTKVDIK', 'min', 25),
  ('H4H9633P (antibody, IgG4, V domains shown, also called RG5) VH: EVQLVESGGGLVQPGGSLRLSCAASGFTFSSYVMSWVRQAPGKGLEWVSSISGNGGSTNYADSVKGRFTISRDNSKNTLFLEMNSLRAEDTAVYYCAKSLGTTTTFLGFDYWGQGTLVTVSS VL: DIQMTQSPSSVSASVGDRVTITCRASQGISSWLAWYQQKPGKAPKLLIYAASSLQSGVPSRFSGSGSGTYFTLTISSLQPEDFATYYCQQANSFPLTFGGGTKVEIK', 'min', 1),
  ('H4H9659P (antibody, IgG4, V domains shown, also called RG7) VH: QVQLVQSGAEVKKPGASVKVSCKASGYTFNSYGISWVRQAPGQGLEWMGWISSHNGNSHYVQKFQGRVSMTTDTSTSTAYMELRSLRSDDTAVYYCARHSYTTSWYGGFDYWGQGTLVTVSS VL: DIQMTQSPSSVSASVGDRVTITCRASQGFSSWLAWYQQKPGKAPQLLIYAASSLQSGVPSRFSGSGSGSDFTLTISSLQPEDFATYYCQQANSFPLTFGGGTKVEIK', 'min', 10),
  ('H4H9671P (antibody, V domains shown) VH: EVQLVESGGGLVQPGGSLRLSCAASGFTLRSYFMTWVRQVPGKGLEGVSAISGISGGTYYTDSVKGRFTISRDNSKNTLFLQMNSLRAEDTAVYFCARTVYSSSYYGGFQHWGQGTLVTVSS VL: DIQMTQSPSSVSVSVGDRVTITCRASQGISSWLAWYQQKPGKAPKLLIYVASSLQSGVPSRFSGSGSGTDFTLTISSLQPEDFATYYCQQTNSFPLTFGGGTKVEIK', 'min', 4),
  ('H4H9663P (antibody, V domains shown) VH: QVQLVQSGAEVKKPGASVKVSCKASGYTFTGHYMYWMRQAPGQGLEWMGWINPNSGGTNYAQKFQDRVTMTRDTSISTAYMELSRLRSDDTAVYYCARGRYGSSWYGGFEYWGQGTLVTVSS VL: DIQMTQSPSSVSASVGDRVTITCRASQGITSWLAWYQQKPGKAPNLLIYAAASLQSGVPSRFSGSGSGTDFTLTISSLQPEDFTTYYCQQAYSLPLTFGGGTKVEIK', 'min', 6),
  ('H4H9662P (antibody, V domains shown) VH: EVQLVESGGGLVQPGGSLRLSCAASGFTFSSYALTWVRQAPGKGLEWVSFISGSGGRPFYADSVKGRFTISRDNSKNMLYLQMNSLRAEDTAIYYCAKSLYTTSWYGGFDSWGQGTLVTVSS VL: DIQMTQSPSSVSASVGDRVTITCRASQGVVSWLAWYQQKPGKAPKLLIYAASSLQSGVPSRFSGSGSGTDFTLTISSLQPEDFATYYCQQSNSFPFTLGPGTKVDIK', 'min', 10),
  ('H4H9640P (antibody, IgG4, V domains shown, also called RG6) VH: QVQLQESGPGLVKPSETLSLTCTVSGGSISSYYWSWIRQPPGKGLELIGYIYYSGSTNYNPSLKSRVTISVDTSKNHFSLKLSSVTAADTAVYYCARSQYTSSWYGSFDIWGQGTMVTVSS VL: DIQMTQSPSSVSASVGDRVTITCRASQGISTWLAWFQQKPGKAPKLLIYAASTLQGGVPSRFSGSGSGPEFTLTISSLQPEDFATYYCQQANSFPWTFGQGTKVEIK', 'min', 0),
  ('H4H9675P (antibody, V domains shown) VH: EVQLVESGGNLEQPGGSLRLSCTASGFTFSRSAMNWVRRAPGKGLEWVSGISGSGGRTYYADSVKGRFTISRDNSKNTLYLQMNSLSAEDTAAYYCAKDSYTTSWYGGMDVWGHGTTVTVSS VL: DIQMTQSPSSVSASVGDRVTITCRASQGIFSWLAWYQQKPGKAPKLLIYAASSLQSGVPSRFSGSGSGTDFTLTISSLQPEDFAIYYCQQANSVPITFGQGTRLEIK', 'min', 2),
  ('H4H9665P (antibody, V domains shown) VH: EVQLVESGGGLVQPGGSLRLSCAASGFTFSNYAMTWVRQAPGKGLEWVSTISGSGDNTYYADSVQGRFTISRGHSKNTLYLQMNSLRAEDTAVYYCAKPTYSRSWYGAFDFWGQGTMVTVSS VL: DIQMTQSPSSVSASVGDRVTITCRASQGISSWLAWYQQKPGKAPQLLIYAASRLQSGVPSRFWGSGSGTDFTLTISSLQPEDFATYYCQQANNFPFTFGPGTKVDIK', 'min', 8),
  ('H4H9666P (antibody, V domains shown) VH: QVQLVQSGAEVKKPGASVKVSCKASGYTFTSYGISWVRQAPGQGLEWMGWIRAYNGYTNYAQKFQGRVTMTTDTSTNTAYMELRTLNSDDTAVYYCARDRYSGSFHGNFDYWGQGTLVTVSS VL: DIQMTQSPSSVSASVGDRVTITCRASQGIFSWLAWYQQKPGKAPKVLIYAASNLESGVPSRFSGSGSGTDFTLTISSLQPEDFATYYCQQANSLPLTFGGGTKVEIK', 'min', 1);
